# credit: patent US20170037111A1

# system-under-test: HLA-A*02:01 (Homo sapiens, UniProt P04439, D140Y/D185E/D98H/E176V/E277Q/G131W/G231S/I119V/I121R/I166T/I218V/L300P/L318F/N151K/N90K/P208A/P217A/Q86G/Q94H/R138H/R169H/T345S)
# assay: MHC binding assay (UV-ligand exchange, β2m ELISA, peptide exchange yield)
# run-conditions: MHC class I binding score; binding to HLA-A*02:01 ranged by peptide exchange yield (UV-ligand exchange, β2m ELISA)
property-measured: Peptide exchange

These recorded examples may help you get a feel for the data.
Input 75 (GLLEVMVNL; listed as Homo sapiens) [compound 75] , output reported Peptide exchange.
″+++″ (≧50% = +++)

Input 385 (SLLEQGLVEA; listed as Homo sapiens) [compound 385] , output reported Peptide exchange.
″++″ (≧20% = ++)

Input 149 (NLLELFVQL; listed as Homo sapiens) [compound 149] , output reported Peptide exchange.
″+++″ (≧50% = +++)

Input 179 (KVLNELYTV; listed as Homo sapiens) [compound 179] , output reported Peptide exchange.
″+++″ (≧50% = +++)

Input 1 (SLMEPPAVLLL; listed as Homo sapiens) [compound 1] , output reported Peptide exchange.
″+++″ (≧50% = +++)

---
Input 475 (LLLNEEALAQI; listed as Homo sapiens) [compound 475] , output reported Peptide exchange.
″+++″ (≧50% = +++)

Input 507 (KLIDDQDISISL; listed as Homo sapiens) [compound 507] , output reported Peptide exchange.
″+++″ (≧50% = +++)

Input 239 (AAFAGKLLSV; listed as Homo sapiens) [compound 239] , output reported Peptide exchange.
″+++″ (≧50% = +++)
